# Test system: V79
# details: Cricetulus griseus
# H2O2 prot listing for each entry below
Just the number, please.

compound	targetSystem	recordedEndpoint	observedValue
CCCCN(CCCC)C1CC(C)(C)N([O])C(C)(C)C1	V79	H2O2 prot	2.9
CC1(C)C=C(C(=O)NCCO)C(C)(C)N1[O]	V79	H2O2 prot	1.2
CCOCC1=CC(C)(C)N([O])C1(C)C	V79	H2O2 prot	1.3
CC1(C)CC(O)C(C)(C)N1[O] (centres undefined)	V79	H2O2 prot	1.4
CC1(C)C=C(C(N)=O)C(C)(C)N1[O]	V79	H2O2 prot	1

Note to self: H2O2 prot recorded for "CC1(C)CC(=O)C(C)(C)N1[O]" was 0.9

Note to self: H2O2 prot recorded for "CCCC[N+](CCCC)(CCCC)CC1=CC(C)(C)N([O])C1(C)C" was 1.1

Note to self: H2O2 prot recorded for "CC1(C)C=C(C=O)CC(C)(C)N1[O]" was 0.8

Note to self: H2O2 prot recorded for "CCCCN(CCCC)CC1=CC(C)(C)N([O])C1(C)C" was 3.2

Note to self: H2O2 prot recorded for "CC1(C)C=C(NC(N)=O)C(C)(C)N1[O]" was 1.2

* * *

# procedureText: Mean surviving fraction of V79 cells following a 1-h exposure to H2O2.
# Assay type: functional, Cricetulus griseus
recordedEndpoint: H2O2 prot
Just the number, please.

Reference set, count: 5
molecule	observedValue
CC1(C)CC(N2C(=O)c3ccccc3C2=O)CC(C)(C)N1	0.8
CC1(C)C=C(C=O)C(C)(C)N1O	2.7
CC1=[N+]([O-])C(C)(C)CC1	0.8
CC(C)(C)NCC1=CC(C)(C)N(O)C1(C)C	2.1
CC1(C)C=C(CNC23CC4CC(CC(C4)C2)C3)CC(C)(C)N1O	2.1

Attention now shifts to the item below.
Note to self: H2O2 prot recorded for "CC1(C)C=C(C(=O)O)C(C)(C)N1[O]" was 1

* * *

# procedureText: Mean surviving fraction of V79 cells following a 1-h exposure to H2O2.
# Assay type: functional, Cricetulus griseus
# H2O2 prot listing for each entry below
Just the number, please.

molecule	observedValue
CC1(C)CC(CN)C(C)(C)N1[O] (configuration not stated)	0.7
CC1(C)CC(=O)C(C)(C)N1O	1.1
CC1(C)CC(O)CC(C)(C)N1	0.4
CC(=O)C1=CC(C)(C)NC1(C)C	1.3

Note to self: H2O2 prot recorded for "CCOCC1=CC(C)(C)N(O)C1(C)C" was 3.2

Note to self: H2O2 prot recorded for "CC1(C)C=C(C(=O)NCCCN2C(=O)c3ccccc3C2=O)C(C)(C)N1O" was 2.2

Note to self: H2O2 prot recorded for CC1(C)CC(O)CC(C)(C)N1[O] [TEMPOL] was 2.5

* * *

# procedureText: Mean surviving fraction of V79 cells following a 1-h exposure to H2O2.
# Format: functional, Cricetulus griseus
// NB: equality with 2 counts as rule not met; only H2O2 prot strictly below is rule met

Example entries and their recorded answers appear below.
compound	className
CC1(C)CCCC(C)(C)N1O	rule met
CC1(C)CC(NC2CC(C)(C)N(O)C(C)(C)C2)CC(C)(C)N1O.Cl	rule met

Given "CC1(C)CC(=O)CC(C)(C)N1[O]" , is recorded H2O2 prot strictly lower than 2?
rule met

Given "CC1(C)CC(=O)CC(C)(C)N1" , is recorded H2O2 prot strictly lower than 2?
rule met

Given "CC1(C)C=C(CNC23CC4CC(CC(C4)C2)C3)C(C)(C)N1O" , is recorded H2O2 prot strictly lower than 2?
rule not met

Given "CC1(C)CCC=[N+]1[O-]" , is recorded H2O2 prot strictly lower than 2?
rule met

Given CC1(C)C=C(CC[Se]C(=N)N)C(C)(C)[NH+]1[O-] (stereo not drawn) , is recorded H2O2 prot strictly lower than 2?
rule met

Given "CC1(C)C=C(C=O)C(C)(C)N1" , is recorded H2O2 prot strictly lower than 2?
rule met

* * *

# procedureText: Mean surviving fraction of V79 cells following a 1-h exposure to H2O2.
# Format: functional, Cricetulus griseus
recordedEndpoint: H2O2 prot
Just the number, please.

structureAsSmiles	H2O2 prot
CC(=O)NC1CC(C)(C)N(O)C(C)(C)C1	1.8

Note to self: H2O2 prot recorded for "CC1(C)C=C(CN2CCCC2)C(C)(C)N1" was 1

Note to self: H2O2 prot recorded for "CC1(C)CCC(C)(C)N1[O]" was 0.9

Note to self: H2O2 prot recorded for "CC1(C)CC(N)CC(C)(C)N1[O]" was 2.8

Note to self: H2O2 prot recorded for "CC1(C)CC(N2C(=O)c3ccccc3C2=O)CC(C)(C)N1O" was 1.5

Note to self: H2O2 prot recorded for "CC1(C)C=C(CNC23CC4CC(CC(C4)C2)C3)C(C)(C)N1" was 1.9

Note to self: H2O2 prot recorded for "CC1(C)CCCC(C)(C)N1[O]" was 3.5

* * *

# System: V79
# details: Cricetulus griseus
recordedEndpoint: H2O2 prot
Just the number, please.

compound	observedValue
CC1(C)C=C(C=O)C(C)(C)N1[O]	1.3
COC(=O)C1=CC(C)(C)N([O])C1(C)C	1.5
CCOC1CC(C)(C)N([O])C(C)(C)C1	1.9
CC1(C)C=C(CO)C(C)(C)N1[O]	1.8
CC1(C)C=C(CCSC(=N)N)C(C)(C)N1[O]	2.2

Note to self: H2O2 prot recorded for "CN(C)CC1=CC(C)(C)N([O])C1(C)C" was 2.1

Note to self: H2O2 prot recorded for CC1(C)CC(CO)C(C)(C)N1[O] (configuration not stated) was 1.1

* * *

# System: V79
# details: Cricetulus griseus
recordedEndpoint: H2O2 prot
Just the number, please.

Reference set, count: 2
structureAsSmiles	H2O2 prot
CC1(C)C=C(CNC23CC4CC(CC(C4)C2)C3)C(C)(C)N1[O]	3.3
CC(C)(C)NCC1=CC(C)(C)N([O])C1(C)C	2

Note to self: H2O2 prot recorded for "CCCCNCC1=CC(C)(C)N([O])C1(C)C" was 2.5

Note to self: H2O2 prot recorded for "CC1(C)C=C(C(=O)NCCCN)C(C)(C)N1[O]" was 1.1

Note to self: H2O2 prot recorded for "CC1(C)C=C(CNCc2ccccc2)C(C)(C)N1[O]" was 2

Note to self: H2O2 prot recorded for "CC1(C)C=C(C(=O)NCCCO)C(C)(C)N1[O]" was 1.1

Note to self: H2O2 prot recorded for "CN(CC1=CC(C)(C)N([O])C1(C)C)Cc1ccccc1" was 2

Note to self: H2O2 prot recorded for "CN(CC1=CC(C)(C)N([O])C1(C)C)C12CC3CC(CC(C3)C1)C2" was 3.3

Note to self: H2O2 prot recorded for "CC1(C)C=C(C(=O)NCC(=O)O)C(C)(C)N1[O]" was 0.9

* * *

# procedureText: Mean surviving fraction of V79 cells following a 1-h exposure to H2O2.
# Type: functional, Cricetulus griseus
# H2O2 prot listing for each entry below

Reference set, count: 7
molecule	H2O2 prot
CC1(C)CC(C(=O)O)C(C)(C)N1[O] (stereo not drawn)	1
CC1(C)C=C(C(=O)NCCCN)C(C)(C)N1O	1
CC1(C)CC(N)C(C)(C)N1[O] (stereo not drawn)	1.1
CC1(C)C=C(C(=O)NCCCN2C(=O)c3ccccc3C2=O)C(C)(C)N1	1.1
CC1(C)CC(C(N)=O)C(C)(C)N1[O] (stereo not drawn)	1.7
CC1=[N+]([O-])C(C)CC1 (stereo not drawn)	1.1
CCOC1CC(C)(C)N(O)C(C)(C)C1	1.6

Attention now shifts to the item below.
Note to self: H2O2 prot recorded for "CC(=O)C1=CC(C)(C)N(O)C1(C)C" was 2.7

* * *

# procedureText: Mean surviving fraction of V79 cells following a 1-h exposure to H2O2.
# Format: functional, Cricetulus griseus
Would you mind labelling by H2O2 prot? At or over 1 is 1 (yes), under is 0 (no).

structureAsSmiles	className
CN(CC1=CC(C)(C)N(O)C1(C)C)C12CC3CC(CC(C3)C1)C2	1 (yes)
CC1(C)C=C(CN2C(=O)c3ccccc3C2=O)C(C)(C)N1O	1 (yes)
CC1(C)C=C(CO)C(C)(C)N1	0 (no)

Reported H2O2 prot reaches at least 1 for "CC1(C)C=C(CO)C(C)(C)N1O" ?
1 (yes)
